Below: a set of entries, each annotated with reported melting point.
Quantity: melting point

| Compound | Measured value |
| --- | --- |
| CCCCCCc1ccc2c(c1)NC(NC(C)C)=NS2(=O)=O | 319 to 321 °C |
| COC(=O)N(c1ccccn1)C(C(=O)NC(Cc1ccccc1)C(O)CN1C2CCC(C2)N1C(=O)OC(C)(C)C)C(C)C (mixture of isomers) | 73 to 77 °C |
| Cc1c(C)c(N2C(=O)c3cc(Cl)c(Cl)cc3C2=O)c(C)c2c1OC(C)(C)C2c1ccccc1 (centres undefined) | 178 to 181 °C |
| O=C(NC(=O)N(Sc1ccccc1[N+](=O)[O-])c1ccc(Cl)cc1)c1c(F)cccc1F | 176 to 178 °C |

---

This listing pairs compounds with measured melting point.
Quantity: melting point

| Compound | Quantity | Measured value |
| --- | --- | --- |
| O=C1c2cc([N+](=O)[O-])cc3cc([N+](=O)[O-])cc(c23)C(=O)N1O | melting point | 317 to 320 °C |
| O=C1NCc2c(-c3ccccc3)cccc2N1Cc1ccccc1 | melting point | 198 to 199 °C |
| O=C(O)c1cccc2c(-c3ccccc3)coc12 | melting point | 220 to 222 °C |
| CCc1cn(C(CC)C(=O)N(C)C)nc1-c1ccccc1Cl (stereo not given) | melting point | 60 to 63 °C |
| CNc1ccc(NC(=O)OC2CCCC2)cc1C(Cc1ccc(C(=O)OC)cc1OC)=NOC(C)=O | melting point | 124 to 126 °C |
| CN1CCCC1CNC(=O)c1cc(S(N)(=O)=O)cc2c1OCCO2 (stereo not given) | melting point | 187 to 188 °C |
| Cc1sc2c(c1C)C(c1ccc(Cl)cc1)=N[C@@H](CC(=O)NCCO)c1nnc(C)n1-2 | melting point | 254 to 255 °C |
| O=C(O)C1C=Nc2c(ccc3ncccc23)N1O (stereo not given) | melting point | > 300 °C |
| CCC(=O)Nc1cc(-c2c(-c3ccc(F)c(C)c3)nc3cccnn23)ccn1 | melting point | 166 to 167 °C |
| Cc1cccc2nn(-c3cc(O)ccc3O)nc12 | melting point | 202 to 203 °C |
| O=C1NC(=O)C(CC#Cc2ccc(Cl)cc2)(Sc2nc3cc(Cl)ccc3s2)S1 (stereo not given) | melting point | 187 to 188 °C |
| COc1cc2c(c(Cl)c1Cl)C(=O)c1ccccc1-2 | melting point | 268 to 270 °C |
| CCCc1[nH]c2cc(C(N)=O)ccc2c1C(=O)C=C(C)C | melting point | 179 to 181 °C |
| COc1ccc(-c2sc3c(c2C)c(=O)c(C#N)cn3Cc2ccccc2F)cc1 | melting point | 215 to 216 °C |
| CCCCCCCCCN(C[C@H]1CCC[C@H](CN(CCCCCCCCC)C(=O)Nc2ccc(N(C)C)cc2)C1)C(=O)Nc1ccc(N(C)C)cc1 (relative stereo) | melting point | 116 to 120 °C |
| Cn1cccc1C(=O)NCCO | melting point | 78.1 °C |
| CCOC(=O)c1cnc2c(OCc3ccccc3)c(F)c(F)cc2c1O | melting point | 200 to 201 °C |
| O=C(Nc1ccc(C(=O)N2Cc3cccn3Cc3ccccc32)cc1)c1cc(Cl)ccc1Cl | melting point | 218 to 220 °C |
| O=C(O)C1(c2ccccc2)CCC2(CC1)OCCO2 | melting point | 134 to 139 °C |
| CCCCCCCCCCCCOc1cc(CC#N)c(SC)cc1CC#N | melting point | 100 to 102 °C |
